Reference for the values: patent US20070219234A1

Below is a list of entries, each paired with its recorded melting point value.

Some solved cases for reference:
- Molecule: "NC(=O)c1sc2nccc(N3CCCN(c4ccc5c(c4)OCCO5)CC3)c2c1N [Example 72]"
  melting point: "104 to 107 °C"
- Molecule: "NC(=O)c1sc2nccc(N3CCOCC3)c2c1N [Example 22]"
  melting point: "232 to 234 °C"
- Molecule: "NC(=O)c1sc2nccc(OC3CCCCCC3)c2c1N [Example 112]"
  melting point: "179 to 180 °C"

Proceeding to the next molecule to report its melting point.
# input # get_value(readout='melting point', item= C[S+]([O-])c1ccc(N2CCCN(c3ccnc4sc(C(N)=O)c(N)c34)CC2)cc1 (stereo not shown) [Example 66] )
# output 153 to 157 °C
